- Tested on: hOCT1 stably transfected HEK293 cells
- test summary: MTT cytotoxicity assay, hOCT1 cells
- Assay type: cell-based, human
- run parameters: ratio of TC50 pcDNA5 to TC50 hOCT1 cells
Would you kindly list Fold increase over pcDNA5 OCT1 for each of these compounds?

I'm hoping you can list Fold increase over pcDNA5 OCT1 for every compound here, please.
1. C[n+]1ccc2c(c1)[nH]c1ccccc12.[I-] [Norharmanium, 2-methyl-9H-β-carboline-2-ium, iodide]
2. COc1ccc2c3c([nH]c2c1)C(C)=NCC3

Ans:
13.1 fold
1.0 fold

I'm hoping you can list Fold increase over pcDNA5 OCT1 for every compound here, please.
1. C[n+]1ccc(-c2ccccc2)cc1
2. Cn1c2c(c3ccccc31)CC[N+](C)=C2.[I-]

Ans:
["16.4 fold", "1.1 fold"]

====

- subject of test: hOCT1 (Homo sapiens)
- Sequence (O15245 1-554): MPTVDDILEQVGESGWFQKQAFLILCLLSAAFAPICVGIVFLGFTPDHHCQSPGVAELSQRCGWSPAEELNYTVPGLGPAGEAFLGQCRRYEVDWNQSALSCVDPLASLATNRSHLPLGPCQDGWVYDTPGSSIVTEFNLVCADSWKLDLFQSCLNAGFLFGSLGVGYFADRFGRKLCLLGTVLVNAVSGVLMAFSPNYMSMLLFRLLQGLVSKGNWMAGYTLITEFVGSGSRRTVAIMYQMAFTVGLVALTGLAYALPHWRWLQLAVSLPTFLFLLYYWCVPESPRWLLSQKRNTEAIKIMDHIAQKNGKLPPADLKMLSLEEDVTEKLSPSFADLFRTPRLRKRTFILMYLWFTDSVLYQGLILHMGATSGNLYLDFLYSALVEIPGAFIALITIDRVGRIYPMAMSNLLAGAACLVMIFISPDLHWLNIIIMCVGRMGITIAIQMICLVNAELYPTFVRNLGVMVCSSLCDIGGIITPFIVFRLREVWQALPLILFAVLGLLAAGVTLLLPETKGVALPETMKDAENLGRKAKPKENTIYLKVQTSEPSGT
- test summary: ASP+-based fluorescence uptake inhibition assay, hOCT1
parameter measured: IC50 (µM)
Numbers only, in µM.

Below are worked cases with known answers.
COc1ccc2c3c([nH]c2c1)C(C)=NCC3 [Harmaline]    27.6
C[n+]1ccc2c(c1)[nH]c1ccccc12.[I-] [Norharmanium, 2-methyl-9H-β-carboline-2-ium, iodide]    70.5
Cn1c2c(c3ccccc31)CC[N+](C)=C2.[I-]    40.4

Q: Endpoint output: IC50 of COc1ccc2c(c1)[nH]c1c(C)nccc12 [Harmine] . Value?
Ans: 23.1

====

- Tested on: hOCT1-3 stably transfected HEK293 cells
- test summary: MTT cytotoxicity assay, result stated across hOCT1-3 cells
- run parameters: compared to vector-transfected HEK293 cells
parameter measured: Effect of hOCT1-3 expression on cytotoxicity (in words)

COc1ccc2c3c([nH]c2c1)C(C)=NCC3    no significant effect
COc1ccc2c(c1)[nH]c1c(C)nccc12    no significant effect
Cn1c2c(c3ccccc31)CC[N+](C)=C2.[I-]    no significant effect

====

- Test system: hOCT1 stably transfected HEK293 cells
- test summary: MTT cytotoxicity assay, hOCT1 cells
- Format: cell-based, human
- run parameters: MTT, 72 h, hOCT1 HEK293 cells; mean±SD of six experiments
Would you kindly list TC50 OCT1 for each of these compounds?
Answers are plain numbers, in µM.

Below are worked cases with known answers.
COc1ccc2c3c([nH]c2c1)C(C)=NCC3 [Harmaline]    23.0
COc1ccc2c(c1)[nH]c1c(C)nccc12 [Harmine]    2.55

Q: Endpoint output: TC50 OCT1 of Cn1c2c(c3ccccc31)CC[N+](C)=C2.[I-] . Value?
Ans: 119
